Molecular target: Sphingosine 1-phosphate receptor 3 (Homo sapiens) (UniProt Q99500)
Sequence (Q99500 whole entry, looked up): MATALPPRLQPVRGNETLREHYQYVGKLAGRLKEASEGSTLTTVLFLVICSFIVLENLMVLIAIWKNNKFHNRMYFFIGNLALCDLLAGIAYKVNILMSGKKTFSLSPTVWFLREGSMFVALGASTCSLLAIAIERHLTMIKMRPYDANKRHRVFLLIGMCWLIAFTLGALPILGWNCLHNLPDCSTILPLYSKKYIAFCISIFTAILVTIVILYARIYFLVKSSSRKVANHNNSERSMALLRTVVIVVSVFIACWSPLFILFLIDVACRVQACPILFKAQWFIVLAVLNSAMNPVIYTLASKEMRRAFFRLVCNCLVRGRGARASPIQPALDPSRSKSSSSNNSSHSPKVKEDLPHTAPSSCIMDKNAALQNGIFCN
Test: S1P3 receptor antagonists, primary screen, cell-based (AID 485);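 further: cells challenged with S1P at its EC80 of 0.8 µM; blue over green emission ratio from cleaved BLA substrate after 4 h stimulation; 0% = S1P-stimulated wells and 100% = unstimulated DMSO-only wells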
Details: CHO S1P3 NFAT-BLA reporter, FRET fluorescence, antagonist mode; at 4.98 µM; hits give high values
In all, about 170,000 compounds went through this assay and about 460 (0.27%) were called active. For the sample, actives were picked, then their nearest neighbours and some compounds at random.
Experimental endpoint: inhibition (%)
Report the value in % with no unit label.

Solved entries:
{"columns": ["Molecule", "inhibition (%)"],
 "data": [
  ["COc1cc(NS(=O)(=O)c2ccc(NC(=O)c3ccc(S(=O)(=O)N4CCCCC4)cc3)cc2)ncn1", -13.9],
  ["CC(=O)Nc1cccc(C(=O)Nc2nc(C)cs2)c1", -16.1],
  ["Cc1cc(=O)oc2cc(OCC(=O)Nc3nnc(C4CC4)s3)ccc12", 6.03],
  ["Cc1cc(C(C)(C)C)cc(S(=O)(=O)Nc2ccc(C(=O)O)cc2)c1C", -12.2],
  ["CCCCCC1CCC(c2nnc(SCC(C)=O)o2)CC1 (configuration not stated)", -22.3]
]}

Given the molecule O=[N+]([O-])c1ccc2[nH]c3c(c2c1)CCCC3O (configuration not stated) , what is its reported inhibition?
12.7

Given the molecule CC[C@H]1CN2CCc3cc(OC)c(OC)cc3[C@@H]2C[C@@H]1C[C@H]1NCCc2cc(OC)c(OC)cc21 , what is its reported inhibition?
97.4

Given the molecule Cc1c(CN2CCCCC2)c(O)n(CCO)c(=O)c1C#N , what is its reported inhibition?
-12.4

Given the molecule NS(=O)(=O)c1ccc(NC(=O)COC(=O)c2cc3ccccc3oc2=O)cc1 , what is its reported inhibition?
11.2

Given the molecule CC(C)N(Cc1ccccc1)C(=O)COC(=O)c1cnccn1 , what is its reported inhibition?
-8.02

Given the molecule COc1cc2c(cc1O)[C@H](Cc1ccc(Oc3cc(C[C@@H]4NCCc5cc(OC)c(O)cc54)ccc3O)cc1)NCC2 , what is its reported inhibition?
-12.9

Given the molecule O=C(/C=C/c1ccc(Cl)cc1)Nc1ccc(S(=O)(=O)Nc2ncccn2)cc1 , what is its reported inhibition?
-1.53

----------
Molecular target: Sphingosine 1-phosphate receptor 3 (Homo sapiens) (UniProt Q99500)
Experiment: S1P3 receptor antagonists, primary screen, cell-based (AID 485);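 further: cells challenged with S1P at its EC80 of 0.8 µM; blue over green emission ratio from cleaved BLA substrate after 4 h stimulation; 0% = S1P-stimulated wells and 100% = unstimulated DMSO-only wells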
Details: CHO S1P3 NFAT-BLA reporter, FRET fluorescence, antagonist mode; at 4.98 µM; hits give high values
Among all 170,000 compounds or so, about 460 (0.27%) were called active. This excerpt belongs to a sample that is enriched for actives.
Experimental endpoint: inhibition (%)
Report the value in % with no unit label.

Solved entries:
{"columns": ["Molecule", "Measurement target", "Assay result"],
 "data": [
  ["O=C(N/N=C/c1c[nH]c2ccccc12)c1cc2ccccc2o1", "Sphingosine 1-phosphate receptor 3 (Homo sapiens) (UniProt Q99500)", -11.5],
  ["COc1ccccc1C(=O)NNC(=O)c1ccc(NC(=O)c2ccccc2)cc1", "Sphingosine 1-phosphate receptor 3 (Homo sapiens) (UniProt Q99500)", -4.89],
  ["CCN(CC)C(=O)C(=O)c1cn(CC(=O)NCc2ccc3c(c2)OCO3)c2ccccc12", "Sphingosine 1-phosphate receptor 3 (Homo sapiens) (UniProt Q99500)", 1.34],
  ["CC1=NNC(=O)C1CC(=O)N/N=C/c1ccncc1 (stereo unspecified)", "Sphingosine 1-phosphate receptor 3 (Homo sapiens) (UniProt Q99500)", -24.4],
  ["CCC(C)c1ccc(NC(=S)NCc2ccccn2)cc1 (stereo unspecified)", "Sphingosine 1-phosphate receptor 3 (Homo sapiens) (UniProt Q99500)", 6.58],
  ["CCCN(CCC)CC(O)COc1ccccc1C(=O)Nc1ccccc1 (stereo unspecified)", "Sphingosine 1-phosphate receptor 3 (Homo sapiens) (UniProt Q99500)", -9.63],
  ["CCc1cc(CNC(=O)CC2C(=O)NCCN2Cc2ccccc2C(F)(F)F)on1 (stereo unspecified)", "Sphingosine 1-phosphate receptor 3 (Homo sapiens) (UniProt Q99500)", -1.82],
  ["C/C(=N\\OC(=O)c1ccccc1)c1c(C)nc2cc(C)ccn12", "Sphingosine 1-phosphate receptor 3 (Homo sapiens) (UniProt Q99500)", -11.2],
  ["COCCn1c(SCC(=O)c2[nH]c(C)c(C(C)=O)c2C)nc2ccccc2c1=O", "Sphingosine 1-phosphate receptor 3 (Homo sapiens) (UniProt Q99500)", -13.7],
  ["O=C(NNC(=O)c1ccccc1[N+](=O)[O-])Nc1ccccc1C(F)(F)F", "Sphingosine 1-phosphate receptor 3 (Homo sapiens) (UniProt Q99500)", -5.24]
]}

Next up:
Given the molecule COc1ccc(/C=C/CN2CCCC(C(=O)c3cc(F)ccc3F)C2)cc1 (stereo unspecified) , what is its reported inhibition?
-10.6
